B1: Gamma-crystallin C, residues 4 to 79; numbered along this chain, P07315 (parent)
chain: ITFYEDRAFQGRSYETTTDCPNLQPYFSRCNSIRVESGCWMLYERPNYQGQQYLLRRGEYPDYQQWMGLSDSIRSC

- Variants of: B1
- assay name: abundance fitness (aPCA) (normalised: wild type 0, dead -1); higher = more abundant; growth selection in yeast, the domain comes from the species named
- assay context: Homo sapiens
Values of abundance fitness greater than or equal to -0.1 map to fulfilled; values below map to not fulfilled.

Some solved cases for reference:
ITFYEDRAFQERSYETTTDCPNLQPYFSRCNSIRVESGCWMLYERPNYQGQQYLLRRGEYPDYQQWMGLSDSIRSC [G11E] : not fulfilled
ITFYEDRAFQGRSYETTTDCPNAQPYFSRCNSIRVESGCWMLYERPNYQGQQYLLRRGEYPDYQQWMGLSDSIRSC [L23A] : not fulfilled
ITFYEDRAFQGRSYETTTDCPNLQPYFSRCNSFRVESGCWMLYERPNYQGQQYLLRRGEYPDYQQWMGLSDSIRSC [I33F] : fulfilled
ITFYEDRAFQGRSYETTTDCPNLQPYFSRCNSIRVESGCWMLYERPNYQGQQYLLRRWEYPDYQQWMGLSDSIRSC [G58W] : not fulfilled
ITFYEDRAFQGRSYETTTDCPNLQPYFSRCNSIRVESGCWMLYERPNYQGQQYLLRRGEYFDYQQWMGLSDSIRSC [P61F] : fulfilled
ITFYEDRAFQGRSYETTTDCPNLQPYFSRCNSIRVESGCWMLYERPNYQGQQYLLRRGEYPDYQQWMGLSDSSRSC [I73S] : not fulfilled
ITFYEDRAFQGRSYETTTDCPNLQPYFSRCNSIRVESGCWMLYERPNYQGQQYLLRRGEYPDYQVWMGLSDSIRSC [Q65V] : fulfilled
ITFYEDRAFFGRSYETTTDCPNLQPYFSRCNSIRVESGCWMLYERPNYQGQQYLLRRGEYPDYQQWMGLSDSIRSC [Q10F] : fulfilled
ITFYEDRAFQGRSYHTTTDCPNLQPYFSRCNSIRVESGCWMLYERPNYQGQQYLLRRGEYPDYQQWMGLSDSIRSC [E15H] : fulfilled
ITFYEDRAFQGRSYETTTDCPNLQPYFSRCNSIRVESGCWMCYERPNYQGQQYLLRRGEYPDYQQWMGLSDSIRSC [L42C] : fulfilled

For this variant, is measured abundance fitness -0.1 or higher? ITFYEDRAFQGRSYETTTDCPCLQPYFSRCNSIRVESGCWMLYERPNYQGQQYLLRRGEYPDYQQWMGLSDSIRSC [N22C]
not fulfilled

For this variant, is measured abundance fitness -0.1 or higher? ITFYEDRAFQGMSYETTTDCPNLQPYFSRCNSIRVESGCWMLYERPNYQGQQYLLRRGEYPDYQQWMGLSDSIRSC [R12M]
fulfilled

For this variant, is measured abundance fitness -0.1 or higher? ITFYEDRAFQGRSYETTTDCPNLQPYFSRCNSIRVESGCWMPYERPNYQGQQYLLRRGEYPDYQQWMGLSDSIRSC [L42P]
not fulfilled

For this variant, is measured abundance fitness -0.1 or higher? ITFYEDRFFQGRSYETTTDCPNLQPYFSRCNSIRVESGCWMLYERPNYQGQQYLLRRGEYPDYQQWMGLSDSIRSC [A8F]
fulfilled

For this variant, is measured abundance fitness -0.1 or higher? ITFYEDRAFQGRSYETTTDCPNLQPYFSRCNSIRVESGCWMLYERPNYQGQQYLLRRGEYPMYQQWMGLSDSIRSC [D62M]
fulfilled

For this variant, is measured abundance fitness -0.1 or higher? ITFYEDRAFQGRSYETTTDCPNLQPYFSACNSIRVESGCWMLYERPNYQGQQYLLRRGEYPDYQQWMGLSDSIRSC [R29A]
fulfilled

For this variant, is measured abundance fitness -0.1 or higher? ITFYEDRAFQGRSYETTTDCPNLQPYFSRCNSIRVESGCSMLYERPNYQGQQYLLRRGEYPDYQQWMGLSDSIRSC [W40S]
not fulfilled

For this variant, is measured abundance fitness -0.1 or higher? ITFYEDRAFQGRSYETTTDCPNLQPYFSRCNSIRVESGCWMLYERPNYQGQQYLLRRGEYPDYQQWMGLSDSIRWC [S75W]
not fulfilled

For this variant, is measured abundance fitness -0.1 or higher? ITFYEDRAFQGRSYETTTDCPNLQPYFSRCNSIRVESGCWMWYERPNYQGQQYLLRRGEYPDYQQWMGLSDSIRSC [L42W]
not fulfilled

For this variant, is measured abundance fitness -0.1 or higher? ITFYEDRAFQGRSYETTTDCPNLQPYFSRCNSIRVESGCWMLYERPNYQGQSYLLRRGEYPDYQQWMGLSDSIRSC [Q52S]
fulfilled

For this variant, is measured abundance fitness -0.1 or higher? ITFYEDRAFQGRLYETTTDCPNLQPYFSRCNSIRVESGCWMLYERPNYQGQQYLLRRGEYPDYQQWMGLSDSIRSC [S13L]
not fulfilled

For this variant, is measured abundance fitness -0.1 or higher? ITFYEDRAFQGRSYETTTDCPNLQPYFSRCNSIRVESGCWMDYERPNYQGQQYLLRRGEYPDYQQWMGLSDSIRSC [L42D]
not fulfilled

For this variant, is measured abundance fitness -0.1 or higher? ITFYEDRAFQGRSYETTTDCPNLQPYFSRCNSIRVESGCWMLYERPNYQGQQYLLRRGEYPDYQQWMGLSDSIRDC [S75D]
not fulfilled

For this variant, is measured abundance fitness -0.1 or higher? ITFYEDRAFQGRSYETTTDCPNLQPYFSRCNSIRVETGCWMLYERPNYQGQQYLLRRGEYPDYQQWMGLSDSIRSC [S37T]
fulfilled

For this variant, is measured abundance fitness -0.1 or higher? ITFYEDRAFQGRSYETTTDCPNLQPYFSRCNSIRVESGCWMLYERPCYQGQQYLLRRGEYPDYQQWMGLSDSIRSC [N47C]
not fulfilled

For this variant, is measured abundance fitness -0.1 or higher? ITFYEDRAFQGRSYETTTDCPNLQPYFSRCNSIRVESGCWMLYERPNYQGQQYLLRHGEYPDYQQWMGLSDSIRSC [R57H]
fulfilled

For this variant, is measured abundance fitness -0.1 or higher? ITFYESRAFQGRSYETTTDCPNLQPYFSRCNSIRVESGCWMLYERPNYQGQQYLLRRGEYPDYQQWMGLSDSIRSC [D6S]
fulfilled

For this variant, is measured abundance fitness -0.1 or higher? ITFYEDRAFQGRSYETTTDCPNTQPYFSRCNSIRVESGCWMLYERPNYQGQQYLLRRGEYPDYQQWMGLSDSIRSC [L23T]
fulfilled

For this variant, is measured abundance fitness -0.1 or higher? ITFYEDRAFQGRSYETTTDCPNLQPYFSRCNSIRVESGCWMLYERPNYQSQQYLLRRGEYPDYQQWMGLSDSIRSC [G50S]
not fulfilled

For this variant, is measured abundance fitness -0.1 or higher? ITFWEDRAFQGRSYETTTDCPNLQPYFSRCNSIRVESGCWMLYERPNYQGQQYLLRRGEYPDYQQWMGLSDSIRSC [Y4W]
fulfilled

For this variant, is measured abundance fitness -0.1 or higher? ITFYEDRAFQGRSYETTTDCPNLQPYFSRCNSIRVESGCWMLYERPHYQGQQYLLRRGEYPDYQQWMGLSDSIRSC [N47H]
not fulfilled
